Measured percent inhibition of viability, listed per entry for reference.
system: NK-92 (IL-2 2.5 ng/mL); assay: percent inhibition of viability; higher = more inhibition; conditions: 72 h; 0.1 nM;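 note: normalised to DMSO-only wells as negative and benzethonium chloride as positive control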
Numeric answer only, unit % assumed.

CO[C@H]1C[C@@H]2CC[C@@H](C)[C@@](O)(O2)C(=O)C(=O)N2CCCC[C@H]2C(=O)O[C@H]([C@H](C)C[C@@H]2CC[C@@H](OC(=O)C(C)(CO)CO)[C@H](OC)C2)CC(=O)[C@H](C)/C=C(\C)[C@@H](O)[C@@H](OC)C(=O)[C@H](C)C[C@H](C)/C=C/C=C/C=C/1C [Temsirolimus] (max concentration tested 100 nM) = 7.2
O=C(Nc1cccc(Cl)c1)Nc1ncc(CCNc2ncnc3ccsc23)s1 [SNS-314] (max concentration tested 1000 nM) = -4.05
O=C(c1ccc(F)c(F)c1Nc1ccc(I)cc1F)N1CC(O)([C@@H]2CCCCN2)C1 [Cobimetinib] (max concentration tested 1000 nM) = -10.5
O=C(/C=C/c1cccnc1)NCCCCC1CCN(C(=O)c2ccccc2)CC1 [Daporinad] (max concentration tested 1000 nM) = -12.4

Lab note: next compound to report on.
Fill in the blank: the reported percent inhibition of viability of Cn1c(=O)c(F)c(Nc2ccc(I)cc2F)c2c(=O)n(C[C@@H](O)CO)cnc21 [TAK-733] (max concentration tested 1000 nM) is ____.
3
